As shown below, each of these molecules has a reported pIC50 value.
measurementTarget: full-length beta-Catenin (Uniprot ID P35222) (Homo sapiens, UniProt P35222)
Construct: 10 nM full-length beta-Catenin (Uniprot ID P35222)
Sequence (P35222 1-781): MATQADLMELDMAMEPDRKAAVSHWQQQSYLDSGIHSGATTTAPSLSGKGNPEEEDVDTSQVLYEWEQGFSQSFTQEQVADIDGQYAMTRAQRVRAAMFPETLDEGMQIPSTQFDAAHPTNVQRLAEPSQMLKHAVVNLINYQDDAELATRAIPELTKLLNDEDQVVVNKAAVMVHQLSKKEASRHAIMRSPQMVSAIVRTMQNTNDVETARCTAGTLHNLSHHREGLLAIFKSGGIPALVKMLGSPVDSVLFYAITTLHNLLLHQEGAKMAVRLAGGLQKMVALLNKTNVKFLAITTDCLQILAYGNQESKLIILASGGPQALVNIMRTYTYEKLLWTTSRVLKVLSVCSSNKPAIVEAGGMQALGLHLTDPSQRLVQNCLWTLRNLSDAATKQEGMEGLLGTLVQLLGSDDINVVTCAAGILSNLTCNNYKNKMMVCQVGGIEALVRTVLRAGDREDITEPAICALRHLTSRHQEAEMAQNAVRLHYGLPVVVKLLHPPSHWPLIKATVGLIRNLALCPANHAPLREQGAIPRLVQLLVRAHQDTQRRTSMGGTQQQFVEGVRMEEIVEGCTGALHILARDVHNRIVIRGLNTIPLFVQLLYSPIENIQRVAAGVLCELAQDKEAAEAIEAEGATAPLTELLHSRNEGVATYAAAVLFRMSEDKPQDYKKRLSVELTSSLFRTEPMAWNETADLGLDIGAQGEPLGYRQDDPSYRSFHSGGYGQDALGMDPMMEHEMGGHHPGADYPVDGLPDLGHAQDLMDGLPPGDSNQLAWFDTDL
assayProcedure: Fluorescence polarization IC50 (beta-catenin / 5FAM-TCF4 10-53 competition)
Format: binding
testContext: fluorescence polarization; read-out: beta-Catenin FP IC50
Note: pIC50 values are expressed as the negative base-10 logarithm of concentration in M.

Worked cases, answers included:
molecule	measurementTarget	pIC50
CC[C@H](C)[C@@H]1NC(=O)[C@H](CC(=O)O)NC(=O)[C@]2(CC=CCCCC3(CCCC=CCCCCCC[C@@](C)(C(=O)N[C@@H](Cc4ccccc4OC)C(=O)N[C@@H](Cc4csc5ccccc45)C(=O)N[C@@H](CCC(N)=O)C(N)=O)NC(=O)[C@H](CCC(N)=O)NC(=O)[C@H](Cc4ccccc4)NC(=O)[C@H](C)NC(=O)[C@H](C)NC(=O)[C@H](CCC(=O)O)NC(=O)[C@H](CC(=O)O)NC3=O)NC1=O)CCCN2C(C)=O (stereo partly drawn) [I-527]	full-length beta-Catenin (Uniprot ID P35222) (Homo sapiens, UniProt P35222)	7.01
CC(=O)N1CCC[C@]12CC=CCCCC1(CCCC=CCCCOC(=O)N3CC[C@@](C(=O)N[C@@H](Cc4ccsc4)C(=O)N[C@@H](Cc4csc5ccccc45)C(=O)N[C@H](C(N)=O)[C@@H](C)O)(C3)NC(=O)[C@H](CC(N)=O)NC(=O)[C@H](Cc3ccccc3)NC(=O)[C@H](C)NC(=O)[C@H](C)NC(=O)[C@H]([C@@H](C)O)NC(=O)[C@H](CC(N)=O)NC1=O)NC(=O)[C@H](CC(C)(C)C)NC(=O)[C@H](CC(=O)O)NC2=O (stereo partly drawn) [I-1745]	full-length beta-Catenin (Uniprot ID P35222) (Homo sapiens, UniProt P35222)	6.40

Which pIC50 reading was recorded for the molecule CC(=O)N1CCC[C@]12CC=CCCCC1(CCCC=CCCCOC(=O)N3CC[C@@](C(=O)N[C@@H](Cc4ccsc4)C(=O)N[C@@H](Cc4csc5ccccc45)C(=O)N[C@@H](CCC(N)=O)C(N)=O)(C3)NC(=O)[C@H](CC(N)=O)NC(=O)[C@H](Cc3ccccc3)NC(=O)[C@H](C)NC(=O)[C@H](C)NC(=O)[C@H](CN(C)CC(=O)O)NC(=O)[C@H](CC(=O)O)NC1=O)NC(=O)[C@H](CC(C)(C)C)NC(=O)[C@H](CC(=O)O)NC2=O (stereo partly drawn) [I-1637] ?
7.96

Given the molecule CC(=O)N1CCC[C@]12CCCCCCC1(CCCCCCCCCCC[C@@](C)(C(=O)N[C@@H](Cc3ccsc3)C(=O)N[C@@H](Cc3csc4ccccc34)C(=O)N[C@@H](CCC(N)=O)C(N)=O)NC(=O)[C@H](CC(C)C)NC(=O)[C@H](Cc3ccccc3)NC(=O)[C@H](C)NC(=O)[C@H](C)NC(=O)[C@H](CN(CC(=O)O)CC(F)(F)F)NC(=O)[C@H](CC(=O)O)NC1=O)NC(=O)[C@H](CC(C)(C)C)NC(=O)[C@H](CC(=O)O)NC2=O (stereo partly drawn) [I-1698] , what is its reported pIC50?
6.78

Can you look up the measured pIC50 of CC(=O)N1CCC[C@]12CC=CCCCC1(CCCC=CCCCOC(=O)N3CC[C@@](C(=O)N[C@@H](Cc4ccccc4C(F)(F)F)C(=O)N[C@@H](Cc4csc5ccccc45)C(=O)N[C@@H](CCC(N)=O)C(=O)N[C@@H](CC(C)C)C(=O)N[C@@H](Cc4ccc(O)cc4)C(N)=O)(C3)NC(=O)[C@H](CC(C)C)NC(=O)[C@H](Cc3ccccc3)NC(=O)[C@H](C)NC(=O)[C@H](C)NC(=O)[C@H](Cc3cccc(C(=O)O)c3)NC(=O)[C@H](CC(=O)O)NC1=O)NC(=O)[C@H](CC(C)(C)C)NC(=O)[C@H](CC(=O)O)NC2=O (stereo partly drawn) [I-2392] for me?
6.34

Looking for the measured pIC50 of CC(=O)N1CCC[C@]12CC=CCCCC1(CCCC=CCCCOC(=O)N3CC[C@@](C(=O)N[C@@H](Cc4ccccc4C#N)C(=O)N[C@@H](Cc4csc5ccccc45)C(=O)N[C@@H](CCC(N)=O)C(N)=O)(C3)NC(=O)[C@H](CC(C)C)NC(=O)[C@H](Cc3ccccc3)NC(=O)[C@H](C)NC(=O)[C@H](C)NC(=O)[C@H](CC(=O)O)NC(=O)[C@H](CC(=O)O)NC1=O)NC(=O)[C@H](CC(C)(C)C)NC(=O)[C@H](CC(=O)O)NC2=O (stereo partly drawn) [I-1203] , can you help?
7.80

Request the reported pIC50 associated with CC(=O)N1CCC[C@]12CC=CCCCC1(CCCC=CCCCOC(=O)N3CC[C@@](C(=O)N[C@@H](Cc4ccsc4)C(=O)N[C@@H](Cc4csc5ccccc45)C(=O)N[C@@H](CO)C(N)=O)(C3)NC(=O)[C@H](CC(C)C)NC(=O)[C@H](Cc3ccccc3)NC(=O)[C@H](C)NC(=O)[C@H](C)NC(=O)[C@H](Cc3ccccc3C(=O)O)NC(=O)[C@H](CC(=O)O)NC1=O)NC(=O)[C@H](CC(C)(C)C)NC(=O)[C@H](CC(=O)O)NC2=O (single isomer, unassigned) [I-1667]
7.89

Which pIC50 is listed for CC(=O)N1CCC[C@]12CC=CCCCC1(CCCC=CCCCOC(=O)N3CC[C@@](C(=O)N[C@@H](Cc4ccccc4C)C(=O)N[C@@H](Cc4csc5ccccc45)C(=O)N[C@@H](CCC(N)=O)C(N)=O)(C3)NC(=O)[C@H](CC(C)C)NC(=O)[C@H](Cc3ccccc3)NC(=O)[C@H](C)NC(=O)[C@H](C)NC(=O)[C@H](CN(CC(=O)O)CC(F)(F)F)NC(=O)[C@H](CC(=O)O)NC1=O)NC(=O)[C@H](CC(C)(C)C)NC(=O)[C@H](CC(=O)O)NC2=O (stereo partly drawn) [I-1725] ?
7.82

// lookup pIC50 for CCCc1cn(CCCC[C@H](NC(=O)[C@H](CO)NC(=O)[C@H](Cc2csc3ccccc23)NC(=O)[C@H](Cc2ccccc2C(F)(F)F)NC(=O)[C@]23CCN(C2)C(=O)OCCCC=CCCCC2(CCCC=CC[C@]4(CCCN4C(C)=O)C(=O)N[C@@H](CC(=O)O)C(=O)N[C@@H](CC(C)(C)C)C(=O)N2)C(=O)N[C@@H](CC(=O)O)C(=O)N[C@@H](Cc2cccc(C(=O)O)c2)C(=O)N[C@@H](C)C(=O)N[C@@H](C)C(=O)N[C@@H](Cc2ccccc2)C(=O)N[C@@H](CC(C)C)C(=O)N3)C(N)=O)nn1 (stereo partly drawn) [I-2432]
7.22
